test system: A673 NR0B1-luciferase reporter, viability-normalised luminescence; assay: suppressors of NR0B1-promoter luciferase reporter, dose response, EWS/Fli inhibitor project, luciferase luminescence, A673 cells, cherry-pick (AID 686920)
Let's look at some compounds and their measured AC35.

Known results for compounds:
| compound | AC35 |
| --- | --- |
| C[C@@H]1CN([C@@H](C)CO)S(=O)(=O)c2ccc(C#Cc3ccncc3)cc2O[C@H]1CN(C)C(=O)C1CCOCC1 | 49.8 µM |
| COc1ccc(N=C2C(=O)Nc3ccc(C)c(Br)c32)cc1 | 10 µM |
| CCOC(=O)Cc1ccc(NC(=O)c2ccccc2Br)cc1 | 4.18 µM |
| Cc1nc2ncccn2c1-c1csc(Nc2ccc(O)cc2)n1 | 8.68 µM |
| CC(=O)Oc1ccc(-c2ccc(C(=O)Nc3cccc(S(=O)(=O)N4CCOCC4)c3)cc2)cc1 | 12.9 µM |

Request: Which AC35 is listed for Cc1ccsc1/C=N/Nc1cccc(C(=O)O)c1 ?
Result: 0.832 µM

Request: Sample C[C@]12CCC3C(CCC4=CC(O)CC[C@@]43/C=N/O)C1(O)CCC2C1=CC(=O)OC1 (some centres undefined) — what was its AC35?
Result: 0.529 µM

Request: What AC35 value was documented for this compound, C[C@H]1CN([C@@H](C)CO)C(=O)Cc2cc(NC(=O)CCCCCC(=O)Nc3ccccc3N)ccc2O[C@H]1CN(C)Cc1ccc(C(F)(F)F)cc1 ?
Result: 6.15 µM

Request: Return reported AC35; argument: Cc1nn(-c2ccc(F)cc2)c2nc(N)c(C#N)c(-c3ccc(O)c(O)c3)c12
Result: 22.2 µM

Request: // AC35 lookup, key: Cc1ccsc1/C=N/Nc1ccc(C(=O)O)cc1
Result: 3.1 µM

Request: Which AC35 is listed for C[C@@H]1CN([C@@H](C)CO)C(=O)c2cc(NS(=O)(=O)c3ccccc3)ccc2O[C@@H]1CN(C)Cc1ccc(C(=O)Nc2ccccc2N)cc1 ?
Result: 9.16 µM

Request: Bench note: what AC35 did COc1ccc(NC(=O)N(C)[C@H]2C[C@H]3c4[nH]c5ccccc5c4CCN3C(=O)[C@H]2CO)cc1 show?
Result: 12 µM

Request: What value of measured AC35 is listed for COc1ccc2oc(-c3ccccc3)cc(=O)c2c1 ?
Result: 8.22 µM

Request: Any idea what AC35 was measured for CN(Cc1cnc2nc(N)nc(N)c2n1)c1ccc(C(=O)N[C@@H](CCC(=O)O)C(=O)O)cc1 ?
Result: < 0.03 µM

###

test system: A673 NR0B1-luciferase reporter, viability-normalised luminescence; experiment: suppressors of NR0B1-promoter luciferase reporter, dose response, EWS/Fli inhibitor project, luciferase luminescence, A673 cells, cherry-pick (AID 686920)
parameter: AC35

Illustrative cases are given below, each with its answer.
| compound | recordedValue |
| --- | --- |
| COC(=O)CC1(C(=O)OC)Oc2ccc(Br)cc2C(=O)N1c1cccc(Cl)c1Cl (stereo not drawn) | 15 µM |
| Cc1cccc(CN2C(=O)/C(=C\c3ccc(C(=O)NCCCN4CCN(C)CC4)cc3)Oc3ccccc32)c1 | 11.6 µM |
| Nc1ccc2c(c1)OC1(CCCC1)O2 | 6.63 µM |
| COc1ccc(/C=C2\SC(=S)N(CCCC(=O)NNC(=O)c3ccccc3O)C2=O)cc1 | 9.15 µM |
| O=C(NC(=O)c1ccccc1)Nc1ccccc1 | 12.8 µM |

Request: Look up AC35: C[C@H]1CN([C@@H](C)CO)C(=O)c2cc(NS(=O)(=O)c3ccc(Cl)cc3)ccc2O[C@H]1CN(C)Cc1ccc(C(=O)Nc2ccccc2N)cc1
Result: 14.5 µM

Request: # AC35 lookup, item C[C@H]1CN([C@@H](C)CO)C(=O)Cc2cc(NC(=O)CCCCCC(=O)Nc3ccccc3N)ccc2O[C@H]1CN(C)Cc1ccc(Cl)c(Cl)c1
Result: 4.68 µM

Request: Bench note: what AC35 did COc1ccc(S(=O)(=O)N=Nc2c(O)[nH]c3ccccc23)cc1 show?
Result: 34.7 µM

Request: If you can, please state the reported AC35 value of CO[C@H]1CN(C)C(=O)c2cc(NC(=O)c3ccc(Oc4ccccc4)cc3)ccc2OC[C@H](C)NC[C@@H]1C .
Result: 26.5 µM

Request: For the compound COc1cccc(O)c1CN1CCC(C(=O)Nc2ccc(-c3cccc(C)c3)cc2)CC1 , what AC35 is on record?
Result: 29.1 µM
